Entry source: paper PMC5540273

# Test system: NEK7;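 also: KINOMEscan kinase panel screen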
# experimental parameters: concentration: 1 μM, replicates: in singlicate; n = 1
The reader will find reported %Inh values listed item by item below.
Express the result in % but write the number alone.

Examples with answers:
compound="Cc1ccc(C)c(NC(=O)NCCNc2ccnc(Nc3ccc(F)cc3)n2)c1 [GSK1379878]" endpoint_result=0
compound=N#Cc1ccc(Oc2ccc(Nc3ncnc4cc[nH]c34)cc2Cl)cc1 endpoint_result=13
compound="CNc1nccc(-c2c(-c3ccc(F)cc3)ncn2CCCN2CCOCC2)n1 [SB-222516]" endpoint_result=0

From here, focus on the item given below.
// query Complete the entry with %Inh for O=C(Nc1n[nH]c2nc(-c3ccco3)c(Br)cc12)c1ccc(CN2CCCC2)cc1.O=C(O)[C@H](O)[C@@H](O)C(=O)O [SB-742352]
// result 10
